Reference source: PubChem BioAssay (NCI)

Assay: NCI Yeast Anticancer Drug Screen. Data for the sgs1 mgt1 strain (AID 161);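 further: 0% = growth of cultures given vehicle only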
Conditions: S. cerevisiae sgs1 mgt1 strain, at 50.0 µM, active compounds read high
About 79,000 compounds went through this panel and 15% of them were active in at least one assay; those are over-represented in the sample as a whole.
The following compounds are shown together with reported growth inhibition values.
Form entry: value (%) — number only.

Worked examples follow.
compound="CCC1(c2ccccc2)SC(N)=NC1=O (stereo unspecified)" reported_metric="growth inhibition" unit_info=% measured_value=-12.8
compound="CN1CCN(CC2C(=O)C3CCC2C3)CC1 (stereo unspecified)" reported_metric="growth inhibition" unit_info=% measured_value=-18.4
compound=O/N=C\c1cc2ccccc2c[n+]1Cc1ccc2ccccc2c1Br reported_metric="growth inhibition" unit_info=% measured_value=44.6
compound=O=C(OC(=O)c1cccnc1)c1cccnc1 reported_metric="growth inhibition" unit_info=% measured_value=-7.75

Look at this compound and give its reported growth inhibition. CCOC(=O)CCC(NC(=O)c1ccc(OCc2ccc3nc(OC)c(OC)nc3c2)cc1)C(=O)OCC (stereo unspecified)
-21.6

Report growth inhibition for `CC1(C)CCCCC1=O` please.
7.1

Can you share its growth inhibition? I mean this compound: CCSC(SCC)C(NC(C)=O)C(O)C(O)COC(=O)c1ccccc1 (stereo unspecified)
17.4

###

Here the recorded growth inhibition is given for each entry.
Assay: NCI Yeast Anticancer Drug Screen. Data for the rad50 strain (AID 155);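 further: 0% = growth of vehicle-only cultures of the same strain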
Conditions: S. cerevisiae rad50 strain growth inhibition; at 50.0 µM; active compounds read high
Compounds without any hit were thinned out: in the full panel of roughly 79,000, 15% have a hit.
Give a bare numeral; the unit % is implied.

Would you please look over these solved cases?
molecule="CC1=CC(O/C=C2\\C(=O)OC3C=CCC23)OC1=O (configuration not stated)" measured_value=-1.6
molecule=CCOc1ccccc1N=Nc1c(C)nn(C(=S)SC)c1OCC measured_value=22.5
molecule=CNC(=O)Nc1cc2c3c(c1)CCCN3CCC2 measured_value=-16.8
molecule=C=C(Cl)C(=O)O measured_value=-11.3
molecule="O=C(Nc1ccc([N+](=O)[O-])cc1)OC1CCS(=O)(=O)C1 (configuration not stated)" measured_value=-0.2

Can you share its growth inhibition? I mean this molecule: `CC(C)(C)CC(C)(C)c1ccc(OCc2ccc(C(F)(F)F)cc2)cc1`
14.2

Which growth inhibition reading was recorded for the molecule CCC1CC(O)c2ccccc2O1 (configuration not stated) ?
-7.85

Could you tell me which growth inhibition is on file for `COC(=O)NCCCCl` ?
5.25

###

Catalogue of growth inhibition readings, one per entry.
Assay: NCI Yeast Anticancer Drug Screen. Data for the rad50 strain (AID 155);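 further: 0% = growth of vehicle-only cultures of the same strain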
Details: S. cerevisiae rad50 strain growth inhibition; at 50.0 µM; active compounds read high
The panel holds about 79,000 compounds, 15% with a hit somewhere; the sample as a whole holds those more often.
The figure you give is taken to be in %; do not add the unit.

molecule="CC(=O)OC1C(C)OC(n2cnc3c(=O)[nH]cnc32)C1OC(C)=O (stereo unspecified)" reported_metric="growth inhibition" measured_value=2.95
molecule="O=C1NC(c2ccccc2)C1N(Cc1ccccc1)Cc1ccccc1 (stereo unspecified)" reported_metric="growth inhibition" measured_value=21.3
molecule=O=c1[nH]cc([N+](=O)[O-])c(=O)[nH]1 reported_metric="growth inhibition" measured_value=14.3
molecule="CC/C=C\\CCOC(=O)C1OC1c1ccccc1 (stereo unspecified)" reported_metric="growth inhibition" measured_value=8.15
molecule=CCCCN(CCCC)C(=Nc1ccccc1)N(CCCC)CCCC reported_metric="growth inhibition" measured_value=-13.2
molecule="CCC(C(CC(=O)c1ccccc1)c1ccccc1)[N+](=O)[O-] (stereo unspecified)" reported_metric="growth inhibition" measured_value=9.7
molecule="CC1CCC(C(C)C)C(NC(=O)c2cccnc2)C1 (stereo unspecified)" reported_metric="growth inhibition" measured_value=8.3
molecule=COC(=O)Oc1ccccc1C(=O)O reported_metric="growth inhibition" measured_value=-25.2
molecule="CC1(C)N(/N=C/c2ccccc2)C(c2ccccc2)C(c2ccccc2)N1/N=C/c1ccccc1 (stereo unspecified)" reported_metric="growth inhibition" measured_value=-8.95
molecule="COC(=O)C1CCC(=O)N1CN(C(C)=O)c1ccccc1 (stereo unspecified)" reported_metric="growth inhibition" measured_value=10.1

Please look at the following molecule next.
Returns the measured growth inhibition for the input molecule. Input: COC1OC(CO)C(O)C(NC(=O)[C@H](Cc2ccccc2)NC(=O)OCc2ccccc2)C1O (stereo partly specified)
16.6
